Target: Virion infectivity factor (Human immunodeficiency virus type 1 group M subtype B (isolate BH10)) + Virion infectivity factor (Human immunodeficiency virus type 1 group M subtype B (isolate BRU/LAI)) + Virion infectivity factor (Human immunodeficiency virus type 1 group M subtype B (isolate PCV12)) + Virion infectivity factor (Human immunodeficiency virus type 1 group M subtype B (isolate HXB2)) + DNA dC->dU-editing enzyme APOBEC-3G (Homo sapiens) (UniProt P69720+P69721+P69722+P69723+Q9HC16)
Assay: inhibitors of Vif binding to APOBEC3G peptide, primary screen, biochemical, TR-FRET, GST-Vif 1-94, biotin-A3G peptide, dose response retest (AID 1117319);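 further: Vif residues 1-94 fused to GST binding biotinylated APOBEC3G peptide 110-148; 0% = full assay without inhibitor and 100% = GST in place of GST-Vif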
Settings: hits give high values
About 1,500 (0.58%) of roughly 260,000 compounds were called active. Not shown: some 5% with an inconclusive outcome. Only a sample is shown. Measured potencies and affinities stand elsewhere.
Assignment: determine reported inhibition for the given molecules.
Your answer is read as %, so omit the unit and give the number.

Task: Can you share its inhibition? I mean this molecule: COc1ccc(Br)c(C(=O)NNC(=O)c2ccc(NS(=O)(=O)c3cccs3)cc2)c1
Result: 2.76

Task: Follow-up item: O=C(CCN1C(=O)c2cccc([N+](=O)[O-])c2C1=O)Nc1nccs1
Result: -4.6

Task: Follow-up item: COC(=O)/C(=C/c1ccco1)NC(=O)c1ccccc1
Result: 11.2

Task: Follow-up item: CCOC(=O)C1C(=O)CC(C)(O)C(C(=O)OCC)C1c1cccc(OC(F)(F)C(F)F)c1 (stereo not drawn)
Result: 1.49

Task: Follow-up item: COC(=O)C1=C(C)NC2=C(C(=O)CC(c3cccs3)C2)C1c1ccsc1 (stereo not drawn)
Result: 3.51

Task: Follow-up item: CCN(CC)c1ccc(/C=N/NS(=O)(=O)c2ccc(CNC(C)=O)cc2)cc1
Result: -3.65

Task: Follow-up item: CCN(C(=O)COC(=O)CNC(=O)c1ccc2ccccc2c1)C1CCS(=O)(=O)C1 (stereo not drawn)
Result: 11.8

Task: Follow-up item: O=C(NC(=S)Nc1ccccc1N1CCCC1)c1cccc(F)c1
Result: 5.9

Task: Follow-up item: Cc1csc(NC(=O)COc2ccc3c(C)cc(=O)oc3c2)n1
Result: -13.9

Task: Follow-up item: CCOc1ccc(C(=O)NCC(C)C)cc1
Result: 1.08

Task: Follow-up item: O=C(CNC(=O)c1cc2ccccc2o1)NCc1cccs1
Result: 15.4

Task: Follow-up item: O=C(c1cccc(C(=O)N2CCN(c3ccccc3F)CC2)c1)N1CCN(c2ccccc2F)CC1
Result: -8.59

Task: Follow-up item: COc1ccc2c(c1)O[C@H](c1ccc3c(c1)OCO3)[C@@H](OC(=O)N[C@H]1CCCc3ccccc31)C2=O
Result: 4.66

Task: Follow-up item: CC(=O)Nc1ccc(/C(N=Nc2ccccc2)=N/N=C(N)N)cc1
Result: 16.3

Task: Follow-up item: CCOCCCNC(=O)c1ccc2nc(-c3ccc(OC)c(OC)c3)c(-c3ccc(OC)c(OC)c3)nc2c1
Result: -0.07

Task: Follow-up item: Cc1cccc(-n2ccnc2SCC(=O)O)c1C
Result: -0.53

Task: Follow-up item: O=C(Nc1ccc(C(=O)O)cc1)/C(=C\c1ccco1)NC(=O)c1ccccc1
Result: 26.2

Task: Follow-up item: O=C(NC1CCCCC1)c1cc(-c2ccco2)on1
Result: 2.76

Task: Follow-up item: CCc1nc2ccc(C(=O)NCCc3ccco3)cc2nc1CC
Result: 9.44

Task: Follow-up item: Cc1ccc(NC(=O)CN2C(=O)S/C(=C\c3cccn3-c3cccc(C(=O)O)c3)C2=O)cc1C
Result: -0.87

Task: Follow-up item: OC1CCCN(C(=S)Nc2ccc(SC(F)F)cc2)C1 (stereo not drawn)
Result: 21.9

Task: Follow-up item: COc1ccc(N2C=C3C(=O)C(C)(OC(=O)CCc4ccccc4)C(=O)C=C3C=C2c2ccc(C#N)cc2)cc1 (stereo not drawn)
Result: 11.3

Task: Follow-up item: COc1ccc(C2=NC(CO)(CO)CO2)cc1
Result: -8.98

Task: Follow-up item: CC(C)n1c(SCC(=O)Nc2nc3ccccc3s2)nc2c1c(=O)n(C)c(=O)n2C
Result: 10.6

Task: Follow-up item: CCCNC(=O)c1ccc2nc(-c3ccccc3)c(-c3ccccc3)nc2c1
Result: -1.93

Task: Follow-up item: Cc1cccc2cc(CN(CCCO)C(=O)Nc3ccc(Cl)cc3)c(=O)[nH]c12
Result: 13.2

Task: Follow-up item: Cc1ccc(/C=N/N=C/c2ccc(C)cc2)cc1
Result: 1.03

Task: Follow-up item: COC(=O)c1cc(=O)nc2scc(C)n12
Result: 5.72

Task: Follow-up item: CC(C)(C)c1cc(NC(=O)CCSc2nnc3ccccn23)cc(C(C)(C)C)c1
Result: -5.51

Task: Follow-up item: COc1cc2nc(N(CCN(C)C)C(=O)c3ccc4ccccc4c3)sc2cc1OC
Result: -3.84

Task: Follow-up item: C=CCNC(=O)c1ccc2nc(-c3ccccc3)c(-c3ccccc3)nc2c1
Result: -4.35

Task: Follow-up item: CCc1cc2cccc(C)c2nc1SCC(=O)Nc1nonc1C
Result: 32.8

Task: Follow-up item: COC(=O)CCC(=O)OC1(C)C(=O)C=C2C=C(C3CC3)N(Cc3ccc(OC)cc3)C=C2C1=O (stereo not drawn)
Result: 31.5

Task: Follow-up item: Cc1ccc(S(=O)(=O)NC(=O)Nc2c(C)cccc2C)cc1
Result: -2.09

Task: Follow-up item: O=C(O)c1ccc2nc(-c3ccco3)c(-c3ccco3)nc2c1
Result: -0.3

Task: Follow-up item: CCc1ccc(N(C(=O)CNC(=O)c2ccco2)C(C(=O)NCC2CCCO2)c2ccccc2)cc1 (stereo not drawn)
Result: 6.06

Task: Follow-up item: C=CCNC(=S)N/N=C/c1ccc(N(CC)Cc2ccccc2)cc1
Result: -8.07

Task: Follow-up item: O=C(CSc1ccc(-c2ccccn2)nn1)Nc1nccs1
Result: -5.9

Task: Follow-up item: CCOC(=O)C1CCN(C(=O)C2CCN(S(=O)(=O)c3cccc4nsnc34)CC2)CC1
Result: -1.01

Task: Follow-up item: O=CN/C=C/c1cccc(O)c1
Result: -10.2

Task: Follow-up item: CC(C)OCCCN1C=C2C(=O)C(C)(OC(=O)CCc3ccccc3)C(=O)C=C2C=C1c1ccc(C#N)cc1 (stereo not drawn)
Result: 12.3

Task: Follow-up item: Cc1cc2oc(=O)cc(CN3CCCCC3)c2cc1O
Result: -5.08

Task: Follow-up item: CC(=O)Nc1ccccc1OCC(=O)NCCC1=CCCCC1
Result: -8.53
